Data provenance: patent US20220033460A1

- Target Or Test System: DRB1*15:01
- Reported Conditions: modification not given
Metric Name: IC50 (nM)
Give your result in nM as a bare value.

Briefly, IC50 measured for TVEKGIYQTSNFRVQ [… (position 307)] : 378
